Cited source: the NIST ThermoML archive (doi:10.1016/j.jct.2012.08.030)

# run_conditions: 308.15 K; 101.3 kPa; Liquid; Vibrating tube method
parameter_measured: mass density (kg/m3)

[
  {
    "compound": "CCCCO [butan-1-ol]",
    "parameter_measured": "mass density",
    "measured_value": 798.214
  },
  {
    "compound": "CC(C)O [propan-2-ol]",
    "parameter_measured": "mass density",
    "measured_value": 772.487
  },
  {
    "compound": "CO [methanol]",
    "parameter_measured": "mass density",
    "measured_value": 777.941
  }
]

(P) CCCCn1cc[n+](C)c1.COS(=O)(=O)[O-] [1-butyl-3-methylimidazolium methyl sulfate]
(Q) CCCO [propan-1-ol]
IN: Consider P and Q . Which of these has its mass density at a higher number? Which one? Tell me its label.
OUT: P

###

# run_conditions: 298.15 K; 101.3 kPa; Liquid; Sing-around technique in a fixed-path interferometer
parameter_measured: speed of sound (m/s)

Here are 2 compounds together with their reported answers.
[
  {
    "compound": "CCCCO [butan-1-ol]",
    "speed of sound, m/s": 1239.3
  },
  {
    "compound": "CCCO [propan-1-ol]",
    "speed of sound, m/s": 1205.9
  }
]

(a) CCCCn1cc[n+](C)c1.COS(=O)(=O)[O-] [1-butyl-3-methylimidazolium methyl sulfate]
(b) CO [methanol]
IN: Consider a and b . Which of these has its speed of sound at a higher number? Which one? Tell me its label.
OUT: a

###

# measurement_description: refractive index (Na D-line) (dimensionless)
# run_conditions: 313.15 K; 101.33 kPa; Liquid; Standard Abbe refractometry
parameter_measured: refractive index

[
  {
    "compound": "CCCCn1cc[n+](C)c1.COS(=O)(=O)[O-] [1-butyl-3-methylimidazolium methyl sulfate]",
    "parameter_measured": "refractive index",
    "measured_value": 1.47443
  },
  {
    "compound": "CCCCO",
    "parameter_measured": "refractive index",
    "measured_value": 1.39138
  },
  {
    "compound": "CC(C)O",
    "parameter_measured": "refractive index",
    "measured_value": 1.3687
  },
  {
    "compound": "CO",
    "parameter_measured": "refractive index",
    "measured_value": 1.32171
  },
  {
    "compound": "CCCO",
    "parameter_measured": "refractive index",
    "measured_value": 1.37722
  }
]

###

# run_conditions: 303.15 K; 101.3 kPa; Liquid; Vibrating tube method
parameter_measured: mass density (kg/m3)

Here are 3 compounds together with their reported answers.
[
  {
    "compound": "CCCO",
    "mass density (kg/m3)": 795.97
  },
  {
    "compound": "CC(C)O",
    "mass density (kg/m3)": 776.845
  },
  {
    "compound": "CCCCO",
    "mass density (kg/m3)": 802.088
  }
]

(P) CCCCn1cc[n+](C)c1.COS(=O)(=O)[O-] [1-butyl-3-methylimidazolium methyl sulfate]
(Q) CO
IN: Between the entries labeled P and Q , whose measured mass density is lower? Which one? Tell me its label.
OUT: Q
(Q: 782.688 kg/m3, P: 1208.7 kg/m3)
